# target_of_assay: T1, human PD-1 expressed on cells (human, UniProt Q15116 25-288)
# T1 construct: whole, on cells
# measurement_description: flow cytometry, hPD1-Jurkat cells

# binder, EC50, nM
records = [
    ("33C4 (antibody, V domains shown, also called 780_39) VH: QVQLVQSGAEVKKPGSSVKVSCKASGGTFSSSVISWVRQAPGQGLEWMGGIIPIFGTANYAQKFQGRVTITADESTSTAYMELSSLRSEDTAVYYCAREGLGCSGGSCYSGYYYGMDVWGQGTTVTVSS VL: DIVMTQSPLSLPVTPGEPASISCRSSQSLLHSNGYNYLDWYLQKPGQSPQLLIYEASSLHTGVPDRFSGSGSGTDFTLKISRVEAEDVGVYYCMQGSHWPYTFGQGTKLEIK", 0.084),
]
